Test system: HCC-2998 colon
Assay: NCI tumour cell line growth inhibition, 48 h; in the data active = GI50 below about 0.43 µM; inactive = the rest
Reply using exactly one outcome from active, inactive

Request: Which outcome did this test record for the molecule CSc1ccc(-c2ccccc(=O)c2O)cc1 ?
Result: inactive

Request: Which outcome did this test record for the molecule c1ccc(N2N=C(c3cccc(Nc4ccncc4)c3)CC2c2ccc3c(c2)OCO3)cc1 (centres undefined) ?
Result: inactive

Request: Which outcome did this test record for the molecule COC(=O)[C@@H](C)C[C@H](Cc1cn(C)c2ccccc12)NC(=O)c1csc([C@@H](C[C@H](C(C)C)N(C)C(=O)[C@@H](NC(=O)[C@H]2CCCCN2C)C(C)C)OC(C)=O)n1 ?
Result: active

Request: Which outcome did this test record for the molecule CCOC(=O)c1ccccc1OC(=O)NNc1ccccc1 ?
Result: inactive

====

Tested on: ACHN renal
Assay: NCI tumour cell line growth inhibition, 48 h; in the data active means GI50 below about 0.43 µM; inactive means the rest
Reply using exactly one outcome from active, inactive

Request: Which outcome did this test record for the compound CC[C@H](NC(=O)[C@H]1CCCCN1C)C(=O)N(C)[C@H](C[C@@H](OC(C)=O)c1nc(C(=O)N[C@@H](Cc2ccccc2)C[C@H](C)C(=O)O)cs1)C(C)C ?
Result: active

Request: Which outcome did this test record for the compound N#Cc1c(NC(=O)NCc2ccccc2)sc2c1CCCC2 ?
Result: inactive

Request: Which outcome did this test record for the compound NS(=O)(=O)OCC1OC(n2cnc3cncnc32)C(O)C1O (stereo not given) ?
Result: active

Request: Which outcome did this test record for the compound Cn1cc(C2=C(c3ccccc3[N+](=O)[O-])C(=O)NC2=O)c2ccccc21 ?
Result: inactive

Request: Which outcome did this test record for the compound Nc1c(C(=O)c2ccc(-c3cccnc3)cc2)cnn1-c1ccc(F)cc1 ?
Result: inactive

====

Test system: SF-295 CNS
Assay: NCI tumour cell line growth inhibition, 48 h
REPORTED ENDPOINT: TGI

Request: Lab note: need TGI for C=C1CCCC2[C@](C)(CC3=C(Cl)C(=O)C=C(OC)C3=O)C(C)CC[C@]12C (some centres not stated) on SF-295 CNS, anyone have it?
Result: 14 µM

Request: Lab note: need TGI for COc1cc2c(cc1C[C@H]1[C@@H]3C[C@H]4c5c(c6ccccc6n5C)C[C@@H]([C@@H]3CO[C@]1(C)OC(C)=O)N4C)c1c(n2C)C2C[C@H]3C(C(C)=O)=COC[C@H]3[C@H](C1)N2C on SF-295 CNS, anyone have it?
Result: 10.4 µM

Request: Lab note: need TGI for CC1=Nc2ccccc2NC(c2ccoc2)C1 (configuration not stated) on SF-295 CNS, anyone have it?
Result: > 100 µM

Request: Lab note: need TGI for C=C=C(C(=O)OC)S(=O)c1ccccc1[N+](=O)[O-] (configuration not stated) on SF-295 CNS, anyone have it?
Result: > 100 µM

Request: Lab note: need TGI for CC[C@@H]1[C@@H](C)O[C@@](O)([C@@H](C)[C@H](O)[C@H](C)[C@H]2OC(=O)/C=C/C=C/[C@H](C)[C@@H]([C@@H](C)[C@@H](O)[C@H](C)[C@@]3(O)C[C@@H](O[C@H]4C[C@@H](O)[C@H](O)C(C)O4)[C@H](CC)[C@@H](C)O3)OC(=O)/C=C/C=C/[C@@H]2C)C[C@H]1O[C@@H]1C[C@@H](O)[C@H](O)C(C)O1 (some centres not stated) on SF-295 CNS, anyone have it?
Result: 0.132 µM

Request: Lab note: need TGI for CCOC(=O)c1ccccc1OC(=O)NNc1ccccc1 on SF-295 CNS, anyone have it?
Result: > 37.4 µM

Request: Lab note: need TGI for CCCCCCCC/C=C/CCCCCCCC1=NC(C)(C)CN1CC(C)O (configuration not stated) on SF-295 CNS, anyone have it?
Result: 3.5 µM
